These entries and their values trace back to PubChem BioAssay.

- Test system: DAF-12 nuclear receptor (Heterodera glycines), GAL4-LBD fusion
- run.description: H. glycines DAF-12 receptor agonists, confirmation, cell-based, luminescence, HEK293, GAL4-LBD fusion (AID 743050);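 further: 0% = DMSO low control and 100% = 2 mM sodium butyrate high control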
- assay.context: HEK293 GAL4-hgDAF12 luciferase reporter, agonist mode; at 6.8 µM; active compounds read high; percent of butyrate response
The other results are listed elsewhere or left out.
Listed compounds paired with reported activation
Reply with just the number (in %).

Worked set:
Value of activation reported for the compound O=C(NN=Cc1ccc2c(c1)CCC2)c1ccccc1O is 10.4

Value of activation reported for the compound Fc1ccccc1-c1cc2cc3c(cc2cn1)OCO3 is 18.4

Value of activation reported for the compound COc1ccc(CNC(=O)COc2ccccc2C(=O)c2cnn(-c3ccccc3)c2)cc1OC is 10.3

Value of activation reported for the compound COc1ccc2nc(-c3ccccn3)ccc2c1 is 16.7

Value of activation reported for the compound O=C(Nc1ccn(Cc2ccccc2)n1)c1cccc(F)c1 is 15.6

--- query ---
Value of activation reported for the compound Cc1ccccc1Nc1nc(-c2cccnc2)cs1 is 16.4

----------
- run.description: E. coli viability inhibition, counter-screen for RecBCD inhibitor project, absorbance, high throughput (AID 651983);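 further: E. coli strain V66 grown with compound alone and no phage infection; 0% = bacteria with DMSO vehicle only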
- assay.context: absorbance (OD) growth, at 11.9 µM
This is one part of the list. Calls of active or inactive are those of the source. No stated cut-off is given here; in the data, active means inhibition above about 20%; inactive means the rest.
Pick from label 1 = active, label 0 = inactive when you respond.

*Q* What was the test verdict on COC(=O)N/N=C/c1c[n+]([O-])c2ccccc2[n+]1[O-] ?
*A* label 1

*Q* What was the test verdict on CCOC(=O)c1ccc(NC(=O)Cn2cnc3cc(C)c(C)cc32)cc1 ?
*A* label 0

*Q* What was the test verdict on Oc1cccc(/C=N/Nc2ccc(Cl)nn2)c1O ?
*A* label 0

*Q* What was the test verdict on O=C(NC(Nc1nc2ccc([N+](=O)[O-])cc2s1)(C(F)(F)F)C(F)(F)F)c1ccccc1 ?
*A* label 0

*Q* What was the test verdict on CCOc1ccc(Cn2nnc(C(=O)Nc3ccc(OC)cc3OC)c2N)cc1 ?
*A* label 0

Next:
*Q* What was the test verdict on CC(=O)c1c(C)n([O-])c2ccccc2[n+]1=O ?
*A* label 1

*Q* What was the test verdict on CCN1CCN(C(=O)N[C@@H](C(=O)N[C@@H]2C(=O)N3C(C(=O)O)=C(CSc4nnnn4C)CS[C@H]23)c2ccc(O)cc2)C(=O)C1=O ?
*A* label 1

*Q* What was the test verdict on CC1(C(=O)NS(=O)(=O)c2ccccc2)CCN1C(=O)C/C=C/c1ccccc1 (stereo not given) ?
*A* label 0

*Q* What was the test verdict on COc1cccc(C(O)c2ncc(-c3ccc4ccccc4c3)[nH]2)c1 (stereo not given) ?
*A* label 0

*Q* What was the test verdict on Oc1c(CN2CCN(c3ccc(F)cc3)CC2)cc(Cl)c2cccnc12 ?
*A* label 0

*Q* What was the test verdict on Cc1ccc(/C=N/NC(=O)C2=NNC(c3ccccc3)(c3ccccc3)C2)c(O)c1 ?
*A* label 0

*Q* What was the test verdict on O=C(Nc1ccc(Br)cn1)c1ccc([N+](=O)[O-])o1 ?
*A* label 0

*Q* What was the test verdict on Oc1c(Cl)cc(Cl)c(Cl)c1Cc1c(O)c(Cl)cc(Cl)c1Cl ?
*A* label 0

*Q* What was the test verdict on CCCCC(=O)NC(c1ccc(OC)c(OC)c1)c1ccc2cccnc2c1O (stereo not given) ?
*A* label 0

*Q* What was the test verdict on CCNC(=S)N(CCc1c(C)[nH]c2ccc(C)cc12)Cc1ccco1 ?
*A* label 0

----------
- Tested on: transactivating tegument protein VP16 (Human herpesvirus 1)
- run.description: VP16 transactivation reporter inhibitors, counter-screen for SRC2 inhibitor project, cell-based, luminescence, single concentration (AID 652007)
- assay.context: cell-based VP16 transactivation luciferase reporter, at 8.9 µM
Calls of active or inactive are those of the source. No stated cut-off is given here; in the data, active means inhibition above about 36%; inactive means the rest.
Pick from active, inactive when you respond.

*Q* What was the test verdict on CC1CCC(C(C)C)C(OC(=O)Cn2c(-c3ccc(F)cc3)[n+](C)c3ccccc32)C1 (stereo not drawn) ?
*A* inactive

*Q* What was the test verdict on O=C1C(Cl)=C(Nc2ccc3cn[nH]c3c2)C(=O)c2ccccc21 ?
*A* inactive

*Q* What was the test verdict on Cc1c(CC(=O)NCCCC(=O)O)c(=O)oc2cc3c(cc12)CCC(C)(C)O3 ?
*A* active

*Q* What was the test verdict on CC1=CC(C)(C)Nc2ccc(OC(=O)CN3C(=O)C4CCCCC4C3=O)cc21 (stereo not drawn) ?
*A* inactive

*Q* What was the test verdict on Nc1ccc(-c2cc3ccccc3oc2=O)cc1 ?
*A* active

*Q* What was the test verdict on Nc1ccc(C(=O)n2c3ccccc3c3ccccc32)cc1 ?
*A* inactive

*Q* What was the test verdict on C=C(C(=O)c1ccccc1)C(C)C(=C)C(=O)c1ccccc1 ?
*A* active

*Q* What was the test verdict on COc1ccc(NC(=O)NCc2ccccc2F)cc1OC ?
*A* inactive

Next:
*Q* What was the test verdict on CCN1CCCc2cc(CN(CCN3CCOCC3)C(=S)Nc3ccccc3OC)ccc21 ?
*A* inactive

*Q* What was the test verdict on CC(C)(C)c1ccc(-c2noc(CCC(=O)Nc3cccnc3)n2)cc1 ?
*A* active

*Q* What was the test verdict on Cc1ccc(S(=O)(=O)C[C@@H]2OC[C@H](C)N2S(=O)(=O)c2ccc(C)cc2)cc1 ?
*A* inactive

*Q* What was the test verdict on COc1ccc(NC(=O)/C(Cl)=C(/Cl)S(=O)Cc2ccccc2)cn1 (stereo not drawn) ?
*A* active

*Q* What was the test verdict on NNC(=O)COc1ccc(-c2nccc(-c3ccc(F)cc3)n2)cc1 ?
*A* inactive

*Q* What was the test verdict on Nc1ncccc1C(=O)OCC(=O)N1CCN(S(=O)(=O)c2ccc(Cl)cc2)CC1 ?
*A* inactive

*Q* What was the test verdict on COc1cc(/C=C/C(=O)c2ccc(F)cc2)cc(OC)c1OC ?
*A* inactive

*Q* What was the test verdict on Cc1cc(C(=O)COC(=O)c2ccc(O)cc2O)c(C)n1-c1ccc(OC(F)F)cc1 ?
*A* inactive

*Q* What was the test verdict on COc1cc(OC)cc(-c2cc3nc(C)c(CCC(=O)O)c(C)n3n2)c1 ?
*A* active

*Q* What was the test verdict on CC(=O)N1CCCC(c2cc(C(=O)Nc3ccccc3)no2)C1 (stereo not drawn) ?
*A* inactive

----------
- run.description: VP16 transactivation inhibitors, counter-screen for SRC1 inhibitor project, cell-based, luminescence, high throughput (AID 588824)
- assay.context: cell-based VP16 transactivation luciferase luminescence; at 3.6 µM
The source made the active and inactive calls. No stated cut-off is given here; in the data, active means inhibition above about 25%; inactive means the rest.
Pick from 1.0 (active), 0.0 (inactive) when you respond.

Below, 5 molecules whose answers are already recorded.
*Q* What was the test verdict on CC1Sc2ccc(C(=O)Nc3ccc(S(=O)(=O)N(C)C)cc3)cc2NC1=O (stereo unspecified) ?
*A* 0.0

*Q* What was the test verdict on Cc1ccccc1C(=O)N1CCN(c2ccc(NC(=O)CSc3ccc(Cl)cc3)cc2)CC1 ?
*A* 1.0

*Q* What was the test verdict on O=C(N/N=C/c1cc(Cl)ccc1O)c1ccccc1Br ?
*A* 0.0

*Q* What was the test verdict on COc1cc(C(=O)N/N=C(\c2ccccc2)c2ccccn2)cc(OC)c1OC ?
*A* 0.0

*Q* What was the test verdict on CN(Cc1ccccc1)C(=O)c1ccc(NC(=O)Cc2ccc(NC(=O)C3CCCN(C(=O)CCc4ccccc4)C3)cc2)cc1 (stereo unspecified) ?
*A* 1.0

Next:
*Q* What was the test verdict on O=C1C=CC(=C(c2ccc(O)cc2)c2ccc(O)cc2)C=C1 ?
*A* 1.0

*Q* What was the test verdict on CC(=NNC(=S)Nc1cccc(C)c1)c1ccccn1 ?
*A* 1.0

*Q* What was the test verdict on COc1ccc(C)cc1NC(=O)c1nnn(Cc2cccc(C(F)(F)F)c2)c1N ?
*A* 1.0

*Q* What was the test verdict on CCC(=O)Oc1c(C(=O)CC)cc2c(C)cc(=O)oc2c1C ?
*A* 0.0

*Q* What was the test verdict on OCCNc1c2ccccc2nc2ccccc12 ?
*A* 1.0

*Q* What was the test verdict on CCCCC(=O)NC(c1ccc(Cl)cc1)c1ccc2cccnc2c1O (stereo unspecified) ?
*A* 1.0

*Q* What was the test verdict on Cc1ccc(N=c2c([N+](=O)[O-])nn(-c3ccc4c(c3)OCCO4)n2O)cc1F ?
*A* 0.0

*Q* What was the test verdict on Cc1ccc(C(=O)N/N=C/c2c(O)ccc3ccccc23)cn1 ?
*A* 1.0

*Q* What was the test verdict on Cc1cc2nc(C3CCCCC3)c(Cc3cccc(F)c3)n2c(C)c1Br ?
*A* 0.0

*Q* What was the test verdict on N=c1c2c(-c3ccccc3)c(-c3ccccc3)n(Cc3ccco3)c2ncn1CCCn1ccnc1 ?
*A* 1.0

*Q* What was the test verdict on Cc1onc(-c2ccccc2)c1C(=O)NC(=S)NNC(=O)c1ccccc1O ?
*A* 1.0
